Attribute: cAMP EC50 (1.0% HSA)
# target: human glucagon receptor (human, UniProt P47871 26-477)
# protocol.details: cell-based or functional assay

Name the reported cAMP EC50 (1.0% HSA) value associated with the binder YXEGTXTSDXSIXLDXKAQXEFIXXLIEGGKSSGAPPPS (Aib2, αMeF6, 4Pal10, αMeF13, Orn16, Aib20, D-Glu24, αMeY25; acylated K17, K31 (groups as in name); C-terminal amide) > 9.95 µM

For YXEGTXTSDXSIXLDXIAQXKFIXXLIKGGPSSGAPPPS (Aib2, αMeF(2F)6, 4Pal10, αMeL13, Orn16, Aib20, D-Glu24, αMeY25; acylated K21, K28 (groups as in name); C-terminal amide) then? > 9.95 µM

Okay, and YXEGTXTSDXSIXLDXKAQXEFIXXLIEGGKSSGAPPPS (Aib2, αMeF(2F)6, 4Pal10, αMeL13, Orn16, Aib20, D-Glu24, αMeY25; acylated K17, K31 (groups as in name); C-terminal amide) ? > 9.95 µM
